# method_summary: physchem
# Format: physicochemical
# particulars: pH 2.7
Marks after values point to notes of the source that are not given here.
observation_type: log p

>>> measured_result("CCCCc1nc(-c2ccc(F)cc2)c(-c2ccncc2)s1")
"3.11^[b]"
>>> measured_result("C#CCN(C(C)=O)c1cc(-c2sc(CC)nc2-c2ccc(F)cc2)ccn1")
"3.03^[b]"
>>> measured_result("CCc1nc(-c2ccc(F)cc2)c(-c2ccnc(N(C)C(=O)c3ccccc3)c2)s1")
"3.68^[b]"
>>> measured_result("CCc1nc(-c2ccc(F)cc2)c(-c2ccnc(NC(=O)c3cccs3)c2)s1")
"3.92^[b]"
>>> measured_result("CCc1nc(-c2ccccc2)c(-c2ccnc(NC(=O)c3ccccc3)c2)s1")
"3.91^[b]"
>>> measured_result("CCc1nc(-c2ccc(F)cc2)c(-c2ccnc(NC(=O)CCl)c2)s1")
"3.29^[b]"
>>> measured_result("CCCC(=O)Nc1cc(-c2sc(CC)nc2-c2ccc(F)cc2)ccn1")
"3.45^[b]"
>>> measured_result("CCc1nc(-c2ccc(F)cc2)c(-c2ccnc(NCC(C)O)c2)s1 (stereo not shown)")
"1.44^[b]"
>>> measured_result("CCc1nc(-c2ccc(F)cc2)c(-c2ccnc(NC(=O)C3CCC3)c2)s1")
"3.68^[b]"
>>> measured_result("CCc1nc(-c2ccc(F)cc2)c(-c2ccnc(NCC(F)F)c2)s1")
"2.39^[b]"
